What pKi was measured for each of the following?
Biological target: T1, human GIP receptor (human, UniProt P48546 22-466)
T1 construct: whole, on cells; also called hGIPR; hGIP-R
T1 sequence (looked up): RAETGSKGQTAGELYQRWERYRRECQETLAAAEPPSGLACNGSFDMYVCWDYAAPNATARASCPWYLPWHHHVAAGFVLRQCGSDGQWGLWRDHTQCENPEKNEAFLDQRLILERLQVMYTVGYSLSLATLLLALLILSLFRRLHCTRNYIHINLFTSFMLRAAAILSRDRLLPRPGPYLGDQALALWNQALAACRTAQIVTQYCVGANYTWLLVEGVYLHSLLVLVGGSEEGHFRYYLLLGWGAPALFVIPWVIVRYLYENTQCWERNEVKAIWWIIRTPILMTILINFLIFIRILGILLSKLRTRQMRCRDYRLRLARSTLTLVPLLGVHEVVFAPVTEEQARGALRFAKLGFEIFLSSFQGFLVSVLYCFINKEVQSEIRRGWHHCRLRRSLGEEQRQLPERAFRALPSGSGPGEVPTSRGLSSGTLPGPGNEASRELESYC
Test: [125I]-GIP competition SPA, hGIPR membranes
Worth noting: pKi values are minus log10 of concentrations stated in mol/L.

**Query** Could you share which pKi value was measured for YXEGTFTSDYSILLDKKAQHAFIEYLIEGGPSSGAPPPS (Aib2; K17((2-[2-(2-Amino-ethoxy)-ethoxy]-acetyl)2-(γ-Glu)-CO-(CH2)18-CO2H); C-terminal NH2) [Example 255] ?
**Result** 10.11

**Query** Could you share which pKi value was measured for YXEGTXTSDYSILLDKKAQXAFIEYLIAGGPSSG (Aib2; αMeF6; K17((2-[2-(2-Amino-ethoxy)-ethoxy]-acetyl)2-(γ-Glu)-CO-(CH2)16-CO2H); Aib20; C-terminal NH2) [Example 309] ?
**Result** 10.58

**Query** Could you share which pKi value was measured for YXEGTXTSDYSILLDKKAQXEFIEYLIAGGPSSG (Aib2; αMeF(2F)6; K17((2-[2-(2-Amino-ethoxy)-ethoxy]-acetyl)2-(γ-Glu)-CO-(CH2)16-CO2H); Aib20; C-terminal NH2) [Example 314] ?
**Result** 10.57
